Field: melting point. Provide a value for each of the compounds that follow.

Worked cases, answers included:
[[record]]
samplesmiles = "CCn1c(-c2cccc(NC(=O)OCCOC)c2)c(C#N)c2cc(N3CCOCC3)ccc21"
result = "189 to 194 °C"

[[record]]
samplesmiles = "CCCn1c(-c2ccc(NS(=O)(=O)CC)cc2)c(C#N)c2ccc(OC)cc21"
result = "163 to 165 °C"

[[record]]
samplesmiles = "CCn1c(-c2ccc(NS(=O)(=O)C(C)C)cc2)c(C#N)c2ccc(OC)cc21"
result = "209 to 213 °C"


Next compound, melting point to be filled in.
Report measured melting point; entry is "CCOc1ccc2c(C#N)c(-c3ccc(N(C)S(C)(=O)=O)cc3)n(C3CCC3)c2c1"
192 to 193 °C
